# EXPERIMENT_DESCRIPTION: AUC in CD1 mouse at 562 umol/kg, ip
# Assay type: ADME, organism-based
# CONDITION_LABEL: plasma
Assignment: determine reported AUC for the given compounds.
Give bare numbers, in µM·h.

- COCCOc1ccc2c(c1)[n+]([O-])c(NCCN(C)C)n[n+]2[O-]: 257

Given [O-][n+]1nc(NCCN2CCOCC2)[n+]([O-])c2ccccc21 , state its recorded AUC.
105

====

# System: HT-29
# EXPERIMENT_DESCRIPTION: Effect on human HT29 cells under hypoxic conditions assessed as drug level causing 10% clonogenic survival
# Type: functional
We use 10 µM·h as the dividing line for Activity: on or above the line is Met, below is Not met.

Study these solved cases before continuing.
• CC1CCCC(C)N1CCNc1n[n+]([O-])c2ccccc2[n+]1[O-] (stereo not drawn) = Not met
• CC(C)c1ccc2c(c1)[n+]([O-])c(NCCN1CCOCC1)n[n+]2[O-] = Met
• COc1ccc2c(c1)[n+]([O-])c(NCCCN1CCC(C#N)C1)n[n+]2[O-] (stereo not drawn) = Met
• Cc1ccc2c(c1)[n+]([O-])c(N)n[n+]2[O-] = Met
• CCCN(CCC)CCNc1n[n+]([O-])c2ccc(C(C)(C)C)cc2[n+]1[O-] = Met
• CCN(CC)CCNc1n[n+]([O-])c2ccc(C(C)C)cc2[n+]1[O-] = Met
• [O-][n+]1nc(NCCN2CCCC2)[n+]([O-])c2ccccc21 = Not met
• Cc1ccc2c(c1)[n+]([O-])c(NCCN1CCOCC1)n[n+]2[O-] = Met

Does Activity meet or surpass 10 µM·h for CC(C)c1ccc2c(c1)[n+]([O-])c(NCCN(C)C)n[n+]2[O-] ?
Met

Same again, this time with Cc1ccc2c(c1)[n+]([O-])c(NCCN(C)C)n[n+]2[O-]
Not met

Another: CCN(CC)CCNc1n[n+]([O-])c2ccc(C(C)(C)C)cc2[n+]1[O-]
Met

Also Cc1ccc2c(c1)[n+]([O-])c(NCCN1CCCCC1)n[n+]2[O-] , if possible.
Not met

Try this compound next: Cc1ccc2c(c1)[n+]([O-])c(NCCCN1CCC(C#N)C1)n[n+]2[O-] (stereo not drawn)
Met
